target: MAGI3_2, Q5TCQ9; test: holdup assay; parameters: key: below the threshold = too weak to quantify, mostly under pKd 3.1 to 4; conditions: plain residues with an end cap or a label only (N-terminal biotin on a linker: ado-ado)
Sequence (Q5TCQ9 398-503): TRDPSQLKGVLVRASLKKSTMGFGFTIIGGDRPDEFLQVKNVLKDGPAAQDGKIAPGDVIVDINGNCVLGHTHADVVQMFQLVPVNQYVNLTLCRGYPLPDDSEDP
Measurement name: pKd

Some solved cases for reference:
Request: Form field: reported pKd of SGSLKLMTTV [DACT1, Q9NYF0]
Result: 5.21

Request: Form field: reported pKd of LPAHHNATRL [SLC34A1, Q06495]
Result: 3.69

Request: Form field: reported pKd of AKPSRISTVV [IQSEC2, Q5JU85]
Result: 5.42

Request: Form field: reported pKd of TKGPRGPTRV [SAPCD1, Q5SSQ6]
Result: 5.41

Request: Form field: reported pKd of HSGYRLNDYV [CLDN14, O95500]
Result: below the threshold

Now for the binder whose pKd we want.
Request: Form field: reported pKd of YRLAQESGLV [ABCC6, O95255]
Result: below the threshold
